- assay: In-vivo pharmacokinetics in plasma of rats
- Design: species or system Wistar rats
- experimental parameters: both sexes, rat; compound 16c in plasma after compound 16c IV 3 mg/kg, Wistar rats
readout: AUC(0-t)
Please answer using a numeric value trailed by its unit.

AUC(0-t) lookup needed for O=P1(c2cnc3c(ccc4c(O)ccnc43)c2)OCC[C@@H](c2cccc(Cl)c2)O1 (stereo partly shown) [Compound 16c] , thanks.
2060 ng·h/mL

---

- assay: In-vivo pharmacokinetics in plasma of rats
- Design: species or system Wistar rats
- experimental parameters: both sexes, rat; compound 16c in plasma after compound 16c IV 3 mg/kg, Wistar rats; read-out: t1/2 (half life of drug in plasma) (converted)
readout: half-life (h)
Form entry: value (h) — number only.

half-life lookup needed for O=P1(c2cnc3c(ccc4c(O)ccnc43)c2)OCC[C@@H](c2cccc(Cl)c2)O1 (stereo partly shown) [Compound 16c] , thanks.
1.5

---

- assay: In-vivo pharmacokinetics in plasma of rats
- Parameters: species or system Wistar rats
- experimental parameters: both sexes, rat; compound 16c in plasma after compound 16c IV 3 mg/kg, Wistar rats
- Procedure: Wistar rats (200±20 g) were divided into 2 groups, 6 each, half female and half male in each group, ate and drank freely. The first group was given compound 16c 3 mg·kg^−1 caudal-intravenously. […] Quantitative LC-MS/MS analysis methods of compound 9c and prodrug 16c in plasma were set up, using diazepam and mildronate as internal standard, respectively. (Prodrug 27 was not detected under experimental condition from plasma) the plasma sample was tested and analyzed. […]
readout: AUC(0-inf) (ng·h/mL)
Form entry: value (ng·h/mL) — number only.

AUC(0-inf) lookup needed for O=P1(c2cnc3c(ccc4c(O)ccnc43)c2)OCC[C@@H](c2cccc(Cl)c2)O1 (stereo partly shown) [Compound 16c] , thanks.
2140

---

- assay: Concentration of compound 16c and 9c in liver after PO dosing of compound 27
- Type: in vivo, Wistar rats
- experimental parameters: both sexes, Wistar, liver; 0.25 h after oral administration of compound 27 (39 mg/kg), rat
Entries and their concentration at 0.25 h values follow.
Form entry: value (ng/g) — number only.

concentration at 0.25 h lookup needed for O=P1(c2cnc3c(ccc4c(O)ccnc43)c2)OCC[C@@H](c2cccc(Cl)c2)O1 (some centres unmarked) [Compound 16c] , thanks.
522

Could you now look at the following compound, please?
concentration at 0.25 h lookup needed for O=P(O)(O)c1cnc2c(ccc3c(O)ccnc32)c1 [Compound 9c] , thanks.
16.1

---

- assay: In-vivo pharmacokinetics in plasma of rats
- Parameters: species or system Wistar rats
- experimental parameters: after compound 16c 3 mg/kg intravenously
readout: AUC0-t of compound 16c in plasma
Please answer using a numeric value trailed by its unit.

AUC0-t of compound 16c in plasma lookup needed for O=P1(c2cnc3c(ccc4c(O)ccnc43)c2)OCC[C@@H](c2cccc(Cl)c2)O1 (stereo partly shown) [Compound 16c] , thanks.
2060 ng·h/mL
